assayTarget: T1, EsCas13d, nuclease-dead (Eubacterium siraeum, UniProt B0MS50, R295A;H300A;R849A;H854A)
T1 sequence: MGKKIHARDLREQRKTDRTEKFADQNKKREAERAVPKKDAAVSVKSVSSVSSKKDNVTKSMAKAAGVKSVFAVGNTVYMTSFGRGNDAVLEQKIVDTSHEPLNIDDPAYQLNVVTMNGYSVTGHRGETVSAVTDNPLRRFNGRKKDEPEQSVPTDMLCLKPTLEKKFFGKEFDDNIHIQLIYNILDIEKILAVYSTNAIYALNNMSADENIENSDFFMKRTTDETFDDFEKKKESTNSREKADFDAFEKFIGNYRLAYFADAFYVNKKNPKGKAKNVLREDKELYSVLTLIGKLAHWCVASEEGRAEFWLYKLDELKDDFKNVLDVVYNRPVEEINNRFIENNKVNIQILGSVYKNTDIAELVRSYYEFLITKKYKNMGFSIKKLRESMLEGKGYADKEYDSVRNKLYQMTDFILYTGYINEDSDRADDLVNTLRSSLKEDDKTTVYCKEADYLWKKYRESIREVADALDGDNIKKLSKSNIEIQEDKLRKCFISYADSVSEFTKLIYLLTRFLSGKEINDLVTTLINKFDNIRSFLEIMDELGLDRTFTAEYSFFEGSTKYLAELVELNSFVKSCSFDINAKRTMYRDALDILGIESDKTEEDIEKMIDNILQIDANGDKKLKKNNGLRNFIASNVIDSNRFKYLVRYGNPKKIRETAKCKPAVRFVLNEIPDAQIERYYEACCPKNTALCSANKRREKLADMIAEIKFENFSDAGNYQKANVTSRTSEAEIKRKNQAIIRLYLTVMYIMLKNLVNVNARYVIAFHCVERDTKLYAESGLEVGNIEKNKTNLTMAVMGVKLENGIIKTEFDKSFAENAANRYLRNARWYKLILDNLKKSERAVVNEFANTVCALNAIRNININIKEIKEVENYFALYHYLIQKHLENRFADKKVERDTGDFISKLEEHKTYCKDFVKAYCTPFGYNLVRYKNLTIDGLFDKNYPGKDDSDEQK
methodSummary: crRNA (strand 1, pre-loaded); Mg2+; 40 mM Tris-HCl pH 7.5, 150 mM NaCl, 6 mM MgCl2, 1 mM DTT, 0.1% Tween-20, 0.2 mg/ml BSA; 25 C; 10 min per concentration, then washed
experimentalConditions: tags: His6-TwinStrep-SUMO cleaved; N-terminal SNAP kept (SNAP-Surface 488); label: 3' end held by stalled T7 RNA polymerase
measuredParameter: Kd (nM)
One number for each entry, in nM.

target 2 MT 5'PFS GUA 3'PFS GAC (mixed) RNA 1: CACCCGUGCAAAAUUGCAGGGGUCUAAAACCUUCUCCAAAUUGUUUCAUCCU RNA 2: GGGAAUGGAUCCACAUCUACGAAUUCGUAAGGAUGAAACAAUUUGGAGAAGGACAGAUCGGAAGAGCACACGU; 7.9
target 2 MT 5'PFS GAU 3'PFS CAA (mixed) RNA 1: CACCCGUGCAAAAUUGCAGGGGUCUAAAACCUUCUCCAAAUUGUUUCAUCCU RNA 2: GGGAAUGGAUCCACAUCUACGAAUUCGAUAGGAUGAAACAAUUUGGAGAAGCAAAGAUCGGAAGAGCACACGU; 14
target 1 insC 3' of 19,insC 3' of 11 (mixed) RNA 1: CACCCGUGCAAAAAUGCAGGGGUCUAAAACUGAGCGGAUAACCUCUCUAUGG RNA 2: GGGAAUGGAUCCACAUCUACGAAUUCGUACCAUCAGAGAGGUCUAUCCGCUCACCGAGAUCGGAAGAGCACACGU; 48

From here, focus on the item given below.
// query # return recorded Kd for input target 3 insC 3' of 3,insC 3' of 3 (mixed) RNA 1: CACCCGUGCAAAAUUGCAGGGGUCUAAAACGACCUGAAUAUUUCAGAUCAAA RNA 2: GGGAAUGGAUCCACAUCUACGAAUUCGUUUUUGAUCUGAAAUAUUCAGGCCUCUGCAGAUCGGAAGAGCACACGU
// result 39
